All figures here come from patent US5637731A.

tested on: peripheral acetylcholine-like effects; assay: Side effect profile: in vivo overt effects (salivation, tremor, diarrhea) after oral administration; design: species or system rat; details: (rat) po
property: Side Effect Profile minimum effective dose (MED) (μ mol/kg)
Hi! Could you send only the number? It should be in μ mol/kg, unit omitted.

[[record]]
compound_structure_string = "CCCCCC(=O)O[C@@H]1CCN(CC#CCN2CCCC2)C1=O"
tested_target = "peripheral acetylcholine-like effects"
value_observed = 7.0


Short answer for `CCCC(=O)O[C@@H]1CCN(CC#CCN2CCCC2)C1=O` : Side Effect Profile minimum effective dose (MED) was 7.2

The reported value for `CCCCOC(=O)O[C@@H]1CCN(CC#CCN2CCCC2)C1=O` in terms of Side Effect Profile minimum effective dose (MED) is 14
